Numbers sourced from ChEMBL document CHEMBL4184225.

Test name: AUClast in C57BL/6 mouse plasma at 5 mg/kg, po administered as single dose
Format: ADME, organism-based
Parameters: dose 5 mg/kg, route oral, time 0 - last
Endpoint name: AUC(0-t)

Cpd smiles	Endpoint name	Recorded measurement
CCCCNc1nc(N)nc2cccc(C(=O)N[C@@H](C)c3ccccc3)c12	AUC(0-t)	365 ng·h/mL

---

Test name: Ratio of drug level in liver to plasma in C57BL/6 mouse at 1 mg/kg, po administered as single dose
Type: ADME, organism-based
Condition label: liver and plasma, 5 mg/kg, in the assay text read “5 mg/kg” for “1 mg/kg”
Endpoint name: Kp

Cpd smiles	Endpoint name	Recorded measurement
CCCCNc1nc(N)nc2cccc(C(=O)N[C@@H](C)c3ccccc3)c12	Kp	23
